Provenance of the data: PubChem BioAssay (NCI)

# System: HS 578T breast
# TEST_METHOD_NOTES: NCI tumour cell line growth inhibition, 48 h
READOUT: TGI

// worked examples, TGI included
COMPOUND: COc1ccc(/C=C/C(=O)c2ccc(Nc3ccnc4cc(Cl)ccc34)cc2)cc1
TARGET: HS 578T breast
TGI: > 100 µM
//
COMPOUND: C=C(C(=O)O)[C@@H]1C[C@@H]2O[C@H]1CC(C)=CCC/C(C)=C/CC[C@@]2(C)O
TARGET: HS 578T breast
TGI: > 100 µM
//
COMPOUND: CCOC(=O)c1cc(-c2ccc(Cl)cc2)c([N+](=O)[O-])n1C
TARGET: HS 578T breast
TGI: > 10 µM
//
COMPOUND: COC(=O)c1ccc(C2SCC(=O)N2NC(=O)C(O)c2ccccc2)cc1 (stereo not given)
TARGET: HS 578T breast
TGI: > 100 µM

Q: Report TGI for CC(=O)O[C@H]1[C@@H](N2CCN(C)CC2)C[C@H]2[C@@H]3CC=C4C[C@@H](N5CCCC5)CC[C@]4(C)[C@H]3CC[C@@]21C
A: > 100 µM

###

# Tested on: A498 renal
# TEST_METHOD_NOTES: NCI tumour cell line growth inhibition, 48 h
READOUT: TGI

Before answering, review these 3 worked examples.
MOLECULE: NC(N)=Nc1nc2ccccc2[nH]1
TARGET: A498 renal
READOUT: TGI
EXPERIMENTAL_VALUE: > 150 µg/mL
--
MOLECULE: CC(C)CC(=O)NS(=O)(=O)c1ccccc1
TARGET: A498 renal
READOUT: TGI
EXPERIMENTAL_VALUE: > 100 µM
--
MOLECULE: Cc1cc(C#N)c(Nc2c(C)cccc2[N+](=O)[O-])s1
TARGET: A498 renal
READOUT: TGI
EXPERIMENTAL_VALUE: > 100 µM

Kindly consider the entry below.
Q: Please supply the value of reported TGI for the item CC(=O)OCC1OC(Sc2ccccn2)C=CC1OC(C)=O (centres undefined)
A: > 100 µM

###

# System: HOP-62 NSCLC
# TEST_METHOD_NOTES: NCI tumour cell line growth inhibition, 48 h
Items are presented alongside their recorded TGI.

Field: example entries. Status: answers known.
COMPOUND: O=C(O)/C=C\C(=O)Nc1ccc2c(c1)C(=O)c1cc(F)ccc1-2
EXPERIMENTAL_VALUE: > 100 µM
--
COMPOUND: O=C(c1ccc2c3c(ccc(C(=O)C(F)(F)F)c13)CC2)C(F)(F)F
EXPERIMENTAL_VALUE: > 100 µM
--
COMPOUND: CC(=O)O[C@H]1[C@@H](N2CCN(C)CC2)C[C@H]2[C@@H]3CC=C4C[C@@H](N5CCCC5)CC[C@]4(C)[C@H]3CC[C@@]21C
EXPERIMENTAL_VALUE: > 100 µM

Q: Please report the measured TGI for COc1ccc(C#CCC(OC2OC(CO)C(O)C(O)C2O)C(O)c2ccc(OC)c(OC)c2)cc1OC (configuration not stated)
A: > 100 µM

Q: Return reported TGI. Input compound: CC(C)[C@@H]1CC[C@@H]2[C@@H]1[C@H](OC(=O)/C=C/c1ccccc1)[C@]1(C(C)C)C[C@@H](OC(=O)CO)[C@@]2(C)O1
A: 14.5 µM

Q: Could you please provide reported TGI for COc1cc2c(cc1O)C(C)Cc1cc3c(cc1N(C)CC2)OCO3 (configuration not stated) ? Thanks!
A: 36.8 µM

Q: Return TGI for the following compound: CC(=O)NC(CCCCNC(=O)N(C)N=O)C(=O)NCc1ccccc1 (configuration not stated)
A: > 100 µM

Q: Report TGI for CC1(C)OC(=O)C(=C2CC(c3ccccc3)c3ccccc32)C(=O)O1 (configuration not stated)
A: > 100 µM

Q: Respond only with TGI recorded for COc1ccc(/C=C/C(=O)c2ccc(Nc3ccnc4cc(Cl)ccc34)cc2)cc1
A: > 100 µM

Q: Return the recorded TGI value; entry: C[n+]1ccc(-c2c3nc(c(-c4ccc5c(ccc[n+]5C)c4)c4ccc([nH]4)c(-c4cc[n+](C)cc4)c4nc(c(-c5ccc6c(ccc[n+]6C)c5)c5ccc2[nH]5)C=C4)C=C3)cc1
A: > 50 µM

Q: Tell us which TGI value is on record for O=C1C(N2C(=O)c3ccccc3C2=O)CN1C(COCc1ccccc1)c1ccc(OCc2ccccc2)cc1 (configuration not stated)
A: > 100 µM

Q: State, in one line, measured TGI of O=C1C[C@H]2[C@H](c3ccc(Br)cc3)[C@H]3C(=O)c4ccccc4NC(=O)[C@@H]3[C@@]2(O)c2ccccc2N1
A: 49.7 µM
